Would you mind telling me the reported enrichment ratio of each entry?
B1: PhoQ; a variant is named by its letters at X, in order, P23837 (parent)
chain: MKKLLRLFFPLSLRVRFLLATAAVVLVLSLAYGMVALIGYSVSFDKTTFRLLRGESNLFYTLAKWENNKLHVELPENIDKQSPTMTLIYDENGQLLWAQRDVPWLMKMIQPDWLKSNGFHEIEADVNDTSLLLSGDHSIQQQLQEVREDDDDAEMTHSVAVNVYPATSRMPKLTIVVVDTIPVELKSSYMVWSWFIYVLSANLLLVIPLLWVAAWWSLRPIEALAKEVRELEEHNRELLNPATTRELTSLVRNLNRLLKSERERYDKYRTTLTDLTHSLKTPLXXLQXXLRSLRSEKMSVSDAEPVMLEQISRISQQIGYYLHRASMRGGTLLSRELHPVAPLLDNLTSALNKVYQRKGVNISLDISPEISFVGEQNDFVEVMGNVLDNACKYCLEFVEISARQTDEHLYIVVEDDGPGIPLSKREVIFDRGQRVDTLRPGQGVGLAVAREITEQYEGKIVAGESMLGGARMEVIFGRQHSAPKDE

Variants of: B1
Experiment: enrichment ratio after two sorts for PhoP signalling (ratio (wild type AVST 3.29)); higher = more functional
Conditions: with PhoP (E. coli)
Whole data set: some 140,000 sequences, median “enrichment ratio after two sorts for PhoP signalling” near 0, cut for the highest 2% near 11. The list comes from a sample in which the highest values are over-represented; it also holds close analogues and randomly drawn sequences.

Reported enrichment ratio of "VLVC" : ≤ 0.25

Reported enrichment ratio of "KSIL" : ≤ 0.25

Reported enrichment ratio of "VRSM" : ≤ 0.25

Reported enrichment ratio of "NRMK" : ≤ 0.25

Reported enrichment ratio of "FDAN" : ≤ 0.25

Reported enrichment ratio of "TYVT" : ≤ 0.25

Reported enrichment ratio of "SVWM" : ≤ 0.25

Reported enrichment ratio of "DMMC" : ≤ 0.25

Reported enrichment ratio of "ATVQ" : 13.9

Reported enrichment ratio of "SMMI" : 5.18

Reported enrichment ratio of "SVLY" : 0.677

Reported enrichment ratio of "AEGD" : 0.253

Reported enrichment ratio of "IINC" : ≤ 0.25

Reported enrichment ratio of "RPIA" : ≤ 0.25

Reported enrichment ratio of "FPFR" : ≤ 0.25

Reported enrichment ratio of "ATVA" : 1.05

Reported enrichment ratio of "LLNR" : ≤ 0.25

Reported enrichment ratio of "MGYV" : 13.4

Reported enrichment ratio of "MNTM" : 18.9

Reported enrichment ratio of "ASGR" : ≤ 0.25

Reported enrichment ratio of "HPWV" : ≤ 0.25

Reported enrichment ratio of "SQIV" : 5.01

Reported enrichment ratio of "AEML" : 14.4

Reported enrichment ratio of "AEYN" : ≤ 0.25

Reported enrichment ratio of "SSEL" : 0.485

Reported enrichment ratio of "MCNL" : ≤ 0.25

Reported enrichment ratio of "PWYG" : ≤ 0.25

Reported enrichment ratio of "SVTS" : 7.51

Reported enrichment ratio of "RVPP" : ≤ 0.25

Reported enrichment ratio of "SVTI" : 12

Reported enrichment ratio of "YVYP" : ≤ 0.25

Reported enrichment ratio of "YQFF" : ≤ 0.25

Reported enrichment ratio of "TEWV" : 18.4

Reported enrichment ratio of "KRMK" : ≤ 0.25

Reported enrichment ratio of "RYGQ" : ≤ 0.25

Reported enrichment ratio of "MAAN" : 14.7

Reported enrichment ratio of "IMCE" : ≤ 0.25

Reported enrichment ratio of "TGGV" : 4.98

Reported enrichment ratio of "TNCL" : 0.276

Reported enrichment ratio of "YWML" : ≤ 0.25

Reported enrichment ratio of "DWCS" : ≤ 0.25

Reported enrichment ratio of "MGWI" : 1.07

Reported enrichment ratio of "MNWM" : 4.81

Reported enrichment ratio of "LRTC" : ≤ 0.25

Reported enrichment ratio of "HYAD" : ≤ 0.25

Reported enrichment ratio of "APLF" : ≤ 0.25

Reported enrichment ratio of "TNRM" : ≤ 0.25

Reported enrichment ratio of "MCAT" : 4.13

Reported enrichment ratio of "HYGV" : ≤ 0.25

Reported enrichment ratio of "SSMW" : ≤ 0.25

Reported enrichment ratio of "MGVK" : ≤ 0.25

Reported enrichment ratio of "WHGN" : ≤ 0.25

Reported enrichment ratio of "NIML" : 6.63

Reported enrichment ratio of "AEQV" : 12.7

Reported enrichment ratio of "SMMW" : ≤ 0.25

Reported enrichment ratio of "AEQN" : 21.7

Reported enrichment ratio of "SMAV" : 5.92

Reported enrichment ratio of "APML" : ≤ 0.25

Reported enrichment ratio of "AELD" : 11.4

Reported enrichment ratio of "GWTC" : ≤ 0.25

Reported enrichment ratio of "ASSM" : 19.3

Reported enrichment ratio of "MDWW" : ≤ 0.25

Reported enrichment ratio of "TEMK" : 32.5

Reported enrichment ratio of "MGYF" : 12.2

Reported enrichment ratio of "KSMF" : ≤ 0.25

Reported enrichment ratio of "KTTK" : ≤ 0.25

Reported enrichment ratio of "MEVQ" : ≤ 0.25

Reported enrichment ratio of "RWWS" : ≤ 0.25

Reported enrichment ratio of "SMFC" : ≤ 0.25

Reported enrichment ratio of "MGVA" : ≤ 0.25

Reported enrichment ratio of "NIQH" : ≤ 0.25

Reported enrichment ratio of "MCVN" : ≤ 0.25

Reported enrichment ratio of "SVTM" : 14.7

Reported enrichment ratio of "TEHV" : 10.3

Reported enrichment ratio of "ATHP" : ≤ 0.25

Reported enrichment ratio of "SHDG" : 1.66

Reported enrichment ratio of "SLVQ" : 0.637

Reported enrichment ratio of "GWLP" : ≤ 0.25

Reported enrichment ratio of "MKAT" : ≤ 0.25

Reported enrichment ratio of "AQVW" : ≤ 0.25

Reported enrichment ratio of "ASSF" : 11.3

Reported enrichment ratio of "SQVQ" : 15.1

Reported enrichment ratio of "DGGW" : ≤ 0.25

Reported enrichment ratio of "KSSF" : ≤ 0.25

Reported enrichment ratio of "ASQM" : 2.47

Data provenance: a collection of fitness landscapes (doi:10.1126/science.1257360)
